Percent Effect by entry:
# Test system: Wolbachia pipientis
# experimental.details: Anti-Wolbachia Cell-Based Screen
# Type: functional
# Design: scale not given: in the data most compounds retested in dose-response had high values
# conditions.used: 5 µM
Hit rate of the full screen: of about 48,000 compounds, about 13,000 (27%) showed an effect of 50% or more. Some of the results follow.
assay.endpoint: Percent Effect (%)

> print(dat)
                                    molecule  reported.result
 1      CCn1c(CN(C)C)nnc1C1CCN(Cc2ccccn2)CC1            2.831
 2                  CC(C)C(=O)NC1CCN(CCO)CC1           -14.55
 3  CN(CC(F)(F)F)C(=O)CN1CCC(c2cc3ccccc3[nH]2)CC1           -8.939
 4  O=C(C1CC=CC1)N1C[C@@H]2[C@@H](C1)OCC(=O)N2Cc1cccnc1           -8.253
 5  Cc1cc(C(=O)N2C[C@H](CO)C[C@H](CN3CCOCC3)C2)cnc1C            8.759
 6   Cn1cc(CN2CCC(CCC(=O)Nc3ccccc3Cl)CC2)cn1            1.121
 7  Cc1ccccc1-c1cncc(C2CCN(C(=O)CN(C)C)CC2)n1           -14.47
 8             Fc1ccccc1CC1CCN(Cc2ccccn2)CC1           -1.082
 9      Oc1nc(C2CCN(Cc3ccccn3)CC2)cc2ccccc12            103.3
10    CCn1c(CN2CCCC2)nnc1C1CCN(Cc2ccccn2)CC1           -10.72
11  Cc1cccc2c(=O)c(C(=O)N3CCCC4(CN(C)C(=O)O4)C3)c[nH]c12 (stereo unspecified)            3.697

###

# Tested on: Wolbachia pipientis
# experimental.details: Anti-Wolbachia Cell-Based Screen
# Assay type: functional
# Parameters: scale not given: in the data most compounds retested in dose-response had high values
# conditions.used: 5 µM
About 13,000 (27%) of roughly 48,000 compounds showed an effect of 50% or more. The list shows a part of the results.
Entries and their measured Percent Effect follow.
assay.endpoint: Percent Effect (%)

> print(dat)
                                    molecule  reported.result
 1  COc1ccc(S(=O)(=O)N2CCC(O)(CN(C)C)C2)cc1 (stereo not given)            122.7
 2  CNc1cccc(CC2COCCN(C(=O)c3cccnc3)C2)n1 (stereo not given)            118.9
 3  CC[C@H]1CN(S(=O)(=O)c2ccc(OC)cc2)CC[C@H]1CC(=O)O            6.997
 4  O=S(=O)(c1cccc(F)c1)N1C[C@@H]2CC[C@H](C1)N(Cc1ccccc1)C2            7.587
 5  Cc1nc(O)cc(CCNC(=O)c2ccc(CN3CCCCC3)cc2)n1            2.411
 6  COc1cccc(S(=O)(=O)N2CCC(O)(CN(C)C)C2)c1 (stereo not given)             -4.6
 7  CCS(=O)(=O)N1C[C@@H](c2cc(O)nc(C)n2)[C@H](c2ccccc2F)C1            95.46
 8  CCOC1COC2(CCN(S(=O)(=O)c3cccc(F)c3)CC2)C1 (stereo not given)           -12.88
 9  Cc1cccc(C(=O)N2C[C@H]3CC[C@@H]2CN(S(=O)(=O)N(C)C)C3)n1           -20.97
10  CNc1cccc(CC2COCCN(C(=O)c3cnn(C)c3)C2)n1 (stereo not given)            151.8

###

Percent Effect values by entry
# Test system: Wolbachia pipientis
# experimental.details: Anti-Wolbachia Cell-Based Screen
# Type: functional
# Design: scale not given: in the data most compounds retested in dose-response had high values
# conditions.used: 5 µM
The whole screen tested about 48,000 compounds, of which about 13,000 (27%) showed an effect of 50% or more. This is one part of the list.
assay.endpoint: Percent Effect (%)

> print(dat)
                                    compound  reported.result
 1      O=C(CN1CCc2ccccc21)Nc1ccc(OC(F)F)cc1           -23.08
 2  COCC(O)CN1CCC(=O)N(CC=C(C)C)Cc2ccccc21 (configuration not stated)            122.6
 3    Cc1cc(NC(=O)CN2CCc3nn(C)c(=O)cc3C2)no1           -3.841
 4   CCn1nc2c(cc1=O)CN(CC(=O)Nc1cc(C)no1)CC2           -6.307
 5  CCCS(=O)(=O)CC(=O)N1CCN(CC2CC2)c2ccccc21            -17.3
 6  COCC(O)CN1CCC(=O)N(CC2CC2)Cc2ccccc21 (configuration not stated)            108.3
 7  Cc1cc(C(N)=O)ccc1NC(=O)N1CCN(c2cccs2)CC1            1.471
 8    Cc1csc(NC(=O)CN2CCc3nn(C)c(=O)cc3C2)n1           -32.21
 9     Cc1nc(CN2CCc3nn(C(C)C)c(=O)cc3C2)oc1C           -3.167
10       Cn1nc2c(cc1=O)CN(CC(=O)Nc1nncs1)CC2           -9.972
11   CCn1nc2c(cc1=O)CN(CC(=O)Nc1nnc(C)s1)CC2            120.7
12      CCn1nc2c(cc1=O)CN(CC(=O)Nc1nccs1)CC2           -22.28

###

# Tested on: Wolbachia pipientis
# experimental.details: Anti-Wolbachia Cell-Based Screen
# Assay type: functional
# Parameters: scale not given: in the data most compounds retested in dose-response had high values
# conditions.used: 5 µM
In all, about 48,000 compounds went through this assay and about 13,000 (27%) showed an effect of 50% or more. The list shows a part of the results.
# reported Percent Effect; entries follow
assay.endpoint: Percent Effect (%)

> print(dat)
                                   molecule       assayed.system  reported.result
1  Cc1nc2c(cc1C(=O)O)CCN(Cc1ccsc1)CC2.O=C(O)C(F)(F)F.O=C(O)C(F)(F)F  Wolbachia pipientis              107
2  Cc1cc(-c2nc(-c3ccccn3)nn2C2CCN(C)CC2)nc(C)n1  Wolbachia pipientis           -5.062
3  CC(=O)N1CC[C@@H](N2CCN(C)CC2)[C@@H]1Cc1ccccc1  Wolbachia pipientis           -7.108
4  O=C(NC1CC1)N1CC[C@H](OCC2CC2)[C@@H]1Cc1cccnc1.O=C(O)C(F)(F)F  Wolbachia pipientis           -2.258
5  Cc1nc(N2CCCC2)nc2c1CCN(Cc1ccsc1)CC2.O=C(O)C(F)(F)F  Wolbachia pipientis            4.858
6  Cc1nc2c(cc1C(=O)O)CCN(CC1CC1)CC2.O=C(O)C(F)(F)F.O=C(O)C(F)(F)F  Wolbachia pipientis           -6.324
7  CN(C)[C@@H]1CCN(C(=O)NC2CCCC2)[C@H]1Cc1ccncc1.O=C(O)C(F)(F)F.O=C(O)C(F)(F)F  Wolbachia pipientis           -4.406
8  O=C(NC1CC1)N1CC[C@@H](O)[C@@H]1Cc1ccccc1  Wolbachia pipientis            101.4
9      Cc1cc(C)n(CCNC(=O)c2ncc[nH]2)c(=O)n1  Wolbachia pipientis          -0.5408

###

# Test system: Wolbachia pipientis
# experimental.details: Anti-Wolbachia Cell-Based Screen
# Format: functional
# Set-up: scale not given: in the data most compounds retested in dose-response had high values
# conditions.used: 5 µM
Hit rate of the full screen: of about 48,000 compounds, about 13,000 (27%) showed an effect of 50% or more. The list shows a part of the results.
Here the recorded Percent Effect is given for each entry.
assay.endpoint: Percent Effect (%)

> print(dat)
                                   molecule  assay.endpoint  reported.result
1  CN(Cc1cccnc1)CC1CN(C(=O)C2CC2)Cc2nccn2C1.O=C(O)C(F)(F)F.O=C(O)C(F)(F)F (stereo not given)  Percent Effect           -3.173
2  O=C(O)C(F)(F)F.O=C(O)C(F)(F)F.c1cncc(OCC2CN(Cc3nccs3)Cc3nccn3C2)c1 (stereo not given)  Percent Effect              104
3  CC(=O)N1Cc2nccn2CC(CNC(=O)c2cccnc2)C1.O=C(O)C(F)(F)F (stereo not given)  Percent Effect           -4.633
4  CS(=O)(=O)N1Cc2nccn2CC(CNC(=O)c2cccnc2)C1.O=C(O)C(F)(F)F (stereo not given)  Percent Effect           -1.051
5  O=C(NCC1CN(c2ncccn2)Cc2nccn2C1)c1cccnc1.O=C(O)C(F)(F)F (stereo not given)  Percent Effect            8.129
